test target: Stromelysin-1 (Homo sapiens);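 further: recombinant enzyme, inhibition read after a 30 min incubation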
condition: at 1 mM
The threshold is inclusive: inhibition of exactly 50% counts as class 1; values below receive class 0.

> print(dat)
                item.smiles                   test.target  classification
1      Nc1ccc(C(=O)O)c(O)c1  Stromelysin-1 (Homo sapiens)         class 0
2  [O-][n+]1cccc2cccc(O)c21  Stromelysin-1 (Homo sapiens)         class 1
3           O=c1cc(CO)occ1O  Stromelysin-1 (Homo sapiens)         class 1
4           O=C(O)c1ccccc1O  Stromelysin-1 (Homo sapiens)         class 0
5         O=C(O)c1cccc(O)n1  Stromelysin-1 (Homo sapiens)         class 0
6      O=c1cc[nH]c(=S)[nH]1  Stromelysin-1 (Homo sapiens)         class 0
7    Cc1occ(O)c(=O)c1C(=O)O  Stromelysin-1 (Homo sapiens)         class 1

---

test target: Matrix metalloproteinase-9 (Homo sapiens);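 further: recombinant human MMP9, activity read after 30 min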
condition: at 1 mM
measured metric: inhibition (%)

> print(dat)
                         compound  recorded.measurement
1            O=C(O)c1ccc2ccccc2n1                    37
2  Oc1cccc2cccnc12 [OXYQUINOLINE]                    78
3       OCc1ccnc(-c2cc(CO)ccn2)c1                    58
4                 O=c1cc(CO)occ1O                    49
5             O=c1ccc2ccccc2[nH]1                     5
6                     O=c1occcc1O                    70
7                O=c1cc(CCl)occ1O                    42
